- study target: Mitogen-activated protein kinase kinase kinase 7 (Homo sapiens)
- Sequence (O43318 whole entry): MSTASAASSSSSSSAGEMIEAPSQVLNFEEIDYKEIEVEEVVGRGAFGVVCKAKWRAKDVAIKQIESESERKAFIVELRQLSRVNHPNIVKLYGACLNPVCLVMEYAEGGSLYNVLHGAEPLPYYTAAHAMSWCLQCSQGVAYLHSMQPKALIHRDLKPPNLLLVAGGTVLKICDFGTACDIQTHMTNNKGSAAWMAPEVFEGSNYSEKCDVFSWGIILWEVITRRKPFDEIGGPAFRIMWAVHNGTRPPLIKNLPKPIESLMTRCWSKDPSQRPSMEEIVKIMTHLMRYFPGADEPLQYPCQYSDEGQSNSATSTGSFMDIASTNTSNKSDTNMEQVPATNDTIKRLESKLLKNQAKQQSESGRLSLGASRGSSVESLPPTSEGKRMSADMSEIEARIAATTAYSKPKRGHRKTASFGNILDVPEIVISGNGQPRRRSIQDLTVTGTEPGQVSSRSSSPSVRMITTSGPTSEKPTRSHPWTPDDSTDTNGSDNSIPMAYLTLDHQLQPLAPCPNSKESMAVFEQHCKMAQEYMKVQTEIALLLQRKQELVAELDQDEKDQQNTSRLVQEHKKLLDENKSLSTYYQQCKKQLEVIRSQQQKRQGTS
- experiment: Inhibition of TAK1 (unknown origin)
property: pIC50
In textbook form, pIC50 equals minus log to base ten of the concentration in mol/L.

Answered cases to consult:
{"columns": ["smiles repr", "property", "endpoint result"],
 "data": [
  ["C[C@H](CO)n1cnnc1-c1cccc(NC(=O)Nc2ccc3ccccc3n2)n1", "pIC50", 5.73],
  ["CC(C)n1cnnc1-c1cccc(NC(=O)Nc2nccc3ccccc23)n1", "pIC50", 7.07],
  ["C[C@H](CO)n1cnnc1-c1cccc(NC(=O)Nc2cc3ccccn3n2)n1", "pIC50", 5.30],
  ["CC(C)n1cnnc1-c1cccc(NC(=O)Nc2ccc3ccccc3n2)n1", "pIC50", 5.34]
]}

Okay, now this molecule:
I'd like to know its pIC50. The molecule in question is CC(C)n1cnnc1-c1cccc(NC(=O)Nc2ncc3ccccc3n2)n1
5.37
